# Activity per record follows
biological target: Cannabinoid receptor 1 (Homo sapiens, UniProt P21554); assay: Agonist activity at CB1 receptor (unknown origin) expressed in CHO cells assessed as induction of calcium mobilization at 10 uM by fluo-4 AM dye-based fluorescence assay relative to CP55940; assay type: functional, cell-based
Sequence (P21554 whole entry): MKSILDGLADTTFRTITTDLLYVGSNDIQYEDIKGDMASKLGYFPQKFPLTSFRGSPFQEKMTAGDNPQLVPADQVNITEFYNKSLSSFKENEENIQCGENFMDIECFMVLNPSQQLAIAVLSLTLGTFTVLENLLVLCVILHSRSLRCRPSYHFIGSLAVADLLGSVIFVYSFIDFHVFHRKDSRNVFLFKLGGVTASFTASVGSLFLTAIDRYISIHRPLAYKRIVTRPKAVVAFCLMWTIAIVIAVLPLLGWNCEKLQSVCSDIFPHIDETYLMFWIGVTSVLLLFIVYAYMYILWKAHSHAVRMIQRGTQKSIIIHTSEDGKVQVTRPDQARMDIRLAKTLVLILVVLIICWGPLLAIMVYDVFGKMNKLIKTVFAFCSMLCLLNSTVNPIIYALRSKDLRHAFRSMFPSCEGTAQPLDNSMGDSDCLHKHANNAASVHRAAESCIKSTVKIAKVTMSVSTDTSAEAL
PARAMETER MEASURED: Activity (%)

>  <COMPOUND>
CCCCNc1cc(C(C)C)c(C(=O)NC2CCCCC2)nn1

>  <MEASURED ON>
Cannabinoid receptor 1 (Homo sapiens, UniProt P21554)

>  <RESULT>
8.74

$$$$
>  <COMPOUND>
CC(C)c1cc(N2CCOCC2)nnc1C(=O)NC1CCCCC1

>  <MEASURED ON>
Cannabinoid receptor 1 (Homo sapiens, UniProt P21554)

>  <RESULT>
6.25

$$$$
>  <COMPOUND>
CC(C)c1cc(C(=O)NC2C3CC4CC(C3)CC2C4)nnc1Nc1cccc(Cl)c1 (stereo unspecified)

>  <MEASURED ON>
Cannabinoid receptor 1 (Homo sapiens, UniProt P21554)

>  <RESULT>
2.12

$$$$
>  <COMPOUND>
CC(C)c1cc(Nc2cccc(Cl)c2)nnc1C(=O)NC1C2CC3CC(C2)CC1C3 (stereo unspecified)

>  <MEASURED ON>
Cannabinoid receptor 1 (Homo sapiens, UniProt P21554)

>  <RESULT>
-6.45

$$$$
>  <COMPOUND>
O=C(NC12CC3CC(CC(C3)C1)C2)c1ccc(N2CCOCC2)nn1

>  <MEASURED ON>
Cannabinoid receptor 1 (Homo sapiens, UniProt P21554)

>  <RESULT>
-4.49

$$$$
>  <COMPOUND>
CC(C)c1cc(NC2CCCC2)nnc1C(=O)NC1C2CC3CC(C2)CC1C3 (stereo unspecified)

>  <MEASURED ON>
Cannabinoid receptor 1 (Homo sapiens, UniProt P21554)

>  <RESULT>
23.2

$$$$

====

Documented Activity across a set of compounds
target: UniProt:P21554; assay: Agonist activity at CB1 receptor (unknown origin) expressed in CHO cells assessed as induction of calcium mobilization at 10 uM by fluo-4 AM dye-based fluorescence assay relative to CP55940; type: functional, cell-based
PARAMETER MEASURED: Activity (%)

>  <COMPOUND>
CC(C)c1cc(NC2CCCC2)nnc1C(=O)NC1CCCCC1

>  <MEASURED ON>
UniProt:P21554

>  <RESULT>
9.48

$$$$
>  <COMPOUND>
CC(C)c1cc(NCCO)nnc1C(=O)NC1CCCCC1

>  <MEASURED ON>
UniProt:P21554

>  <RESULT>
14.8

$$$$
>  <COMPOUND>
CC(C)c1cc(NC2CC2)nnc1C(=O)NC1C2CC3CC(C2)CC1C3 (stereo unspecified)

>  <MEASURED ON>
UniProt:P21554

>  <RESULT>
7.48

$$$$
>  <COMPOUND>
CC(C)c1cc(C(=O)NC2C3CC4CC(C3)CC2C4)nnc1N1CCCCC1 (stereo unspecified)

>  <MEASURED ON>
UniProt:P21554

>  <RESULT>
-1.23

$$$$
>  <COMPOUND>
CC(C)c1cc(C(=O)NC2CCCCC2)nnc1N1CCOCC1

>  <MEASURED ON>
UniProt:P21554

>  <RESULT>
-4.03

$$$$
>  <COMPOUND>
CC(C)c1cc(C(=O)NC2C3CC4CC(C3)CC2C4)nnc1NCC1CC1 (stereo unspecified)

>  <MEASURED ON>
UniProt:P21554

>  <RESULT>
39.3

$$$$
>  <COMPOUND>
CC(C)c1cc(NCC2CC2)nnc1C(=O)NC1C2CC3CC(C2)CC1C3 (stereo unspecified)

>  <MEASURED ON>
UniProt:P21554

>  <RESULT>
31.3

$$$$
>  <COMPOUND>
CC(C)c1cc(N2CCN(C)CC2)nnc1C(=O)NC1C2CC3CC(C2)CC1C3 (stereo unspecified)

>  <MEASURED ON>
UniProt:P21554

>  <RESULT>
16.7

$$$$
>  <COMPOUND>
CC(C)c1cc(C(=O)NC2C3CC4CC(C3)CC2C4)nnc1NC1CCCCC1 (stereo unspecified)

>  <MEASURED ON>
UniProt:P21554

>  <RESULT>
2.64

$$$$
>  <COMPOUND>
CCCCNc1cc(C(C)C)c(C(=O)NC2C3CC4CC(C3)CC2C4)nn1 (stereo unspecified)

>  <MEASURED ON>
UniProt:P21554

>  <RESULT>
13.7

$$$$
>  <COMPOUND>
O=C(NC1C2CC3CC(C2)CC1C3)c1ccc(N2CCOCC2)nn1 (stereo unspecified)

>  <MEASURED ON>
UniProt:P21554

>  <RESULT>
3.24

$$$$

====

target: Cannabinoid receptor 2 (Homo sapiens); assay: Agonist activity at CB2 receptor (unknown origin) expressed in CHO cells assessed as induction of calcium mobilization at 10 uM by fluo-4 AM dye-based fluorescence assay relative to CP55940; type: functional, cell-based

>  <MOLECULE>
CC(C)c1cc(C(=O)NC2C3CC4CC(C3)CC2C4)nnc1NC1CCCCC1 (stereo not given)

>  <Activity [%]>
106

$$$$
>  <MOLECULE>
CC(C)c1cc(NC2CCCCC2)nnc1C(=O)NC1C2CC3CC(C2)CC1C3 (stereo not given)

>  <Activity [%]>
119

$$$$
>  <MOLECULE>
CC(C)c1cc(N2CCOCC2)nnc1C(=O)NC12CC3CC(CC(C3)C1)C2

>  <Activity [%]>
117

$$$$
>  <MOLECULE>
CCCCNc1cc(C(C)C)c(C(=O)NC23CC4CC(CC(C4)C2)C3)nn1

>  <Activity [%]>
64

$$$$
>  <MOLECULE>
CC(C)c1cc(C(=O)NC2C3CC4CC(C3)CC2C4)nnc1N1CCCCC1 (stereo not given)

>  <Activity [%]>
63

$$$$

====

biological target: Cannabinoid receptor 2 (Homo sapiens, UniProt P34972); test: Agonist activity at CB2 receptor (unknown origin) expressed in CHO cells assessed as induction of calcium mobilization by fluo-4 AM dye-based fluorescence assay
Sequence (P34972 whole entry): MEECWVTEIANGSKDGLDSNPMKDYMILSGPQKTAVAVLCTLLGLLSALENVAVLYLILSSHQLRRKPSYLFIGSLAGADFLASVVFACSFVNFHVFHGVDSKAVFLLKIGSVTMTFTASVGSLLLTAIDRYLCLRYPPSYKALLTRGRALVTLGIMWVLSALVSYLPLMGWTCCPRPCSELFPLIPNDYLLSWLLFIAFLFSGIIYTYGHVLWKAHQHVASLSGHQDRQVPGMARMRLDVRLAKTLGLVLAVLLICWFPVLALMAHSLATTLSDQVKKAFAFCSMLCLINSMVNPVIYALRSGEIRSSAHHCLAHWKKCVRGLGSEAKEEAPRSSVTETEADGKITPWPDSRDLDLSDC
pEC50: −log10 of the molar value.
PARAMETER MEASURED: pEC50

>  <COMPOUND>
CCCCNc1cc(C(C)C)c(C(=O)NC23CC4CC(CC(C4)C2)C3)nn1

>  <PARAMETER MEASURED>
pEC50

>  <REL>
=

>  <RESULT>
6.80

$$$$
>  <COMPOUND>
O=C(NC1CCCCC1)c1ccc(N2CCOCC2)nn1

>  <PARAMETER MEASURED>
pEC50

>  <REL>
<

>  <RESULT>
5.00

$$$$
>  <COMPOUND>
O=C(NC12CC3CC(CC(C3)C1)C2)c1ccc(N2CCOCC2)nn1

>  <PARAMETER MEASURED>
pEC50

>  <REL>
<

>  <RESULT>
5.00

$$$$
>  <COMPOUND>
CC(C)c1cc(N2CCN(C)CC2)nnc1C(=O)NC1C2CC3CC(C2)CC1C3 (configuration not stated)

>  <PARAMETER MEASURED>
pEC50

>  <REL>
<

>  <RESULT>
5.00

$$$$
>  <COMPOUND>
CC(C)c1cc(NC(C)C(C)C)nnc1C(=O)NC1C2CC3CC(C2)CC1C3 (configuration not stated)

>  <PARAMETER MEASURED>
pEC50

>  <REL>
=

>  <RESULT>
5.53

$$$$
>  <COMPOUND>
CC(C)c1cc(C(=O)NC2C3CC4CC(C3)CC2C4)nnc1NCCO (configuration not stated)

>  <PARAMETER MEASURED>
pEC50

>  <REL>
=

>  <RESULT>
7.00

$$$$
>  <COMPOUND>
CC(C)c1cc(C(=O)NC2C3CC4CC(C3)CC2C4)nnc1Nc1cccc(Cl)c1 (configuration not stated)

>  <PARAMETER MEASURED>
pEC50

>  <REL>
<

>  <RESULT>
5.00

$$$$
>  <COMPOUND>
CC(C)c1cc(Nc2cccc(Cl)c2)nnc1C(=O)NC1C2CC3CC(C2)CC1C3 (configuration not stated)

>  <PARAMETER MEASURED>
pEC50

>  <REL>
=

>  <RESULT>
5.17

$$$$
>  <COMPOUND>
CCCCNc1cc(C(C)C)c(C(=O)NC2C3CC4CC(C3)CC2C4)nn1 (configuration not stated)

>  <PARAMETER MEASURED>
pEC50

>  <REL>
=

>  <RESULT>
7.31

$$$$
>  <COMPOUND>
CC(C)c1cc(C(=O)NC23CC4CC(CC(C4)C2)C3)nnc1N1CCOCC1

>  <PARAMETER MEASURED>
pEC50

>  <REL>
=

>  <RESULT>
6.46

$$$$
>  <COMPOUND>
CC(C)c1cc(C(=O)NC2CCCCC2)nnc1N1CCOCC1

>  <PARAMETER MEASURED>
pEC50

>  <REL>
=

>  <RESULT>
6.01

$$$$
>  <COMPOUND>
CC(C)c1cc(N2CCOCC2)nnc1C(=O)NC1C2CC3CC(C2)CC1C3 (configuration not stated)

>  <PARAMETER MEASURED>
pEC50

>  <REL>
=

>  <RESULT>
8.44

$$$$
>  <COMPOUND>
CC(C)c1cc(NC2CCCCC2)nnc1C(=O)NC1C2CC3CC(C2)CC1C3 (configuration not stated)

>  <PARAMETER MEASURED>
pEC50

>  <REL>
=

>  <RESULT>
6.40

$$$$
>  <COMPOUND>
CC(C)c1cc(C(=O)NC2C3CC4CC(C3)CC2C4)nnc1NCC1CC1 (configuration not stated)

>  <PARAMETER MEASURED>
pEC50

>  <REL>
=

>  <RESULT>
6.78

$$$$
>  <COMPOUND>
CC(C)c1cc(C(=O)NC2C3CC4CC(C3)CC2C4)nnc1N1CCCCC1 (configuration not stated)

>  <PARAMETER MEASURED>
pEC50

>  <REL>
=

>  <RESULT>
5.46

$$$$
>  <COMPOUND>
CC(C)c1cc(C(=O)NC2C3CC4CC(C3)CC2C4)nnc1NC1CCCC1 (configuration not stated)

>  <PARAMETER MEASURED>
pEC50

>  <REL>
=

>  <RESULT>
7.46

$$$$
>  <COMPOUND>
CC(C)c1cc(N2CCOCC2)nnc1C(=O)NC1CCCCC1

>  <PARAMETER MEASURED>
pEC50

>  <REL>
=

>  <RESULT>
6.23

$$$$
>  <COMPOUND>
CC(C)c1cc(NC2CCCC2)nnc1C(=O)NC1C2CC3CC(C2)CC1C3 (configuration not stated)

>  <PARAMETER MEASURED>
pEC50

>  <REL>
=

>  <RESULT>
8.24

$$$$
>  <COMPOUND>
CC(C)c1cc(C(=O)NC2C3CC4CC(C3)CC2C4)nnc1NC1CCCCC1 (configuration not stated)

>  <PARAMETER MEASURED>
pEC50

>  <REL>
=

>  <RESULT>
6.70

$$$$
>  <COMPOUND>
CC(C)c1cc(NCCO)nnc1C(=O)NC1C2CC3CC(C2)CC1C3 (configuration not stated)

>  <PARAMETER MEASURED>
pEC50

>  <REL>
=

>  <RESULT>
8.30

$$$$
>  <COMPOUND>
CC(C)c1cc(NC2CC2)nnc1C(=O)NC1C2CC3CC(C2)CC1C3 (configuration not stated)

>  <PARAMETER MEASURED>
pEC50

>  <REL>
=

>  <RESULT>
7.77

$$$$
>  <COMPOUND>
CCCCNc1nnc(C(=O)NC2C3CC4CC(C3)CC2C4)cc1C(C)C (configuration not stated)

>  <PARAMETER MEASURED>
pEC50

>  <REL>
=

>  <RESULT>
7.02

$$$$
